Let's look at some compounds and their measured half-life.
Experiment: Pharmacokinetics in rats
Type: in vivo, Sprague-Dawley rats
Conditions: Sprague-Dawley, rat, plasma, po, 3mg/kg, n=3

| COMPOUND | half-life |
| --- | --- |
| COc1cc(Cl)cc(N(CC23CCC(c4ccc(OC)c(C#N)c4)(CC2)CC3)C(=O)c2ccncc2C)c1 [Compound 20p] | 1.45 h |
| COc1ccc(C23CCC(CN(C(=O)c4ccncc4C)c4cc(Cl)cc(Cl)c4)(CC2)CC3)cc1C#N [Compound 20q] | 4.52 h |

----------
Target: FXR (Homo sapiens, UniProt Q96RI1)
Construct: host or cells: CHO cells
Sequence (Q96RI1 whole entry): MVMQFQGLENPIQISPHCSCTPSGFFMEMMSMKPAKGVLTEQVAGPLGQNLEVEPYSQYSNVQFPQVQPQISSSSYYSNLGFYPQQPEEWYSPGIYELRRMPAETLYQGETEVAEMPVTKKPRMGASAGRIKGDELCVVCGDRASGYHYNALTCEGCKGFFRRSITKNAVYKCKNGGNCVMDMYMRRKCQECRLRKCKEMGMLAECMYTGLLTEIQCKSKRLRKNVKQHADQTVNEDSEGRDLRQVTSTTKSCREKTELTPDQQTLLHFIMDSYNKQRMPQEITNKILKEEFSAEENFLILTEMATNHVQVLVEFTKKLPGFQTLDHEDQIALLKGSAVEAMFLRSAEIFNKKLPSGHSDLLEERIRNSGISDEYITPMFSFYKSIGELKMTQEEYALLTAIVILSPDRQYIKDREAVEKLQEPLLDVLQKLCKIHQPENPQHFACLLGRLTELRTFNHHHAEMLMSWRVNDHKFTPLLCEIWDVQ
Assay: CHO cell-based FXR luciferase reporter assay (Indigo Biosciences)
Settings: 0.1 µM; % vs OCA 1 µM as 100%
Kindly return yes if reported FXR Efficacy (%) (0.1 µM) is no lower than 60%; return no if it is lower.

| COMPOUND | ANSWER LABEL |
| --- | --- |
| COc1ccc(C23CCC(CN(C(=O)c4ccncc4C)c4cc(Cl)cc(Cl)c4)(CC2)CC3)cc1C#N [Compound 20q] | yes |
| COc1cc(Cl)cc(N(CC23CCC(c4ccc(OC)c(C#N)c4)(CC2)CC3)C(=O)c2ccncc2C)c1 [Compound 20p] | no |
| CCc1cnccc1C(=O)N(CC12CCC(c3ccc(OC)c(C)c3)(CC1)CC2)c1cc(F)cc(Cl)c1 [Compound 20j] | no |
| COc1cc(Cl)cc(N(CC23CCC(c4ccc5c(c4)OCO5)(CC2)CC3)C(=O)c2ccncc2C)c1 [Compound 20o] | no |
| COC(=O)/C=C/c1cccc(N(Cc2ccc(-c3ccc(N(C)C)cc3)cc2)C(=O)C2CCCCC2)c1 [Compound 7, Fexaramine, reference compound] | no |
| Cc1cnccc1C(=O)N(CC12CCC(c3ccc4c(c3)OCCO4)(CC1)CC2)c1cc(Cl)cc(Cl)c1 [Compound 20r] | no |
| COc1ccc(C23CCC(CN(C(=O)c4ccncc4C)c4cc(Cl)cc(Cl)c4)(CC2)CC3)cc1Cl [Compound 20v] | yes |
| Cc1cnccc1C(=O)N(CC12CCC(c3ccc4c(c3)OCO4)(CC1)CC2)c1cc(Cl)cc(Cl)c1 [Compound 20n] | yes |
| COc1ccc(C23CCC(CN(C(=O)c4ccncc4C)c4cc(F)cc(Cl)c4)(CC2)CC3)cc1C [Compound 20i] | yes |
| Cc1cnccc1C(=O)N(CC12CCC(c3ccc(N(C)C)cc3)(CC1)CC2)c1cc(Cl)cc(Cl)c1 [Compound 20s] | no |
| COc1cc(Cl)cc(N(CC23CCC(c4ccc(N(C)C)cc4)(CC2)CC3)C(=O)c2ccncc2C)c1 [Compound 20t] | no |
| COc1ncc(C23CCC(CN(C(=O)c4ccncc4C)c4cc(Cl)cc(Cl)c4)(CC2)CC3)cc1C [Compound 20u] | yes |

----------
Biological target: GPR40 (Homo sapiens, UniProt O14842)
Construct: Eurofine Cerep / Eurofine Panlabs Discovery Services
Sequence (O14842 whole entry): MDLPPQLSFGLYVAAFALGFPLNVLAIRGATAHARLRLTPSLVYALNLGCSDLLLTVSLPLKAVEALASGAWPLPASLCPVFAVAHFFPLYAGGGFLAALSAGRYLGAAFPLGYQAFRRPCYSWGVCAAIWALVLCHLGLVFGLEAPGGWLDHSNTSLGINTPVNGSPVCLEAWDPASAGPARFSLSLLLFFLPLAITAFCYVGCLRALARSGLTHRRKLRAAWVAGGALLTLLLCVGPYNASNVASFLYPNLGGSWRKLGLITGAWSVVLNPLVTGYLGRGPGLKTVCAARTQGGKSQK
Test: Selectivity, cellular functional assay
Format: cell-based
Conditions: cellular functional assay
pEC50: −log10 of the molar value.

| COMPOUND | pEC50 |
| --- | --- |
| COc1cc(Cl)cc(N(CC23CCC(c4ccc(OC)c(C#N)c4)(CC2)CC3)C(=O)c2ccncc2C)c1 [Compound 20p] | < 4.52 |
